Target: E. coli K12 GDP-mannose dehydratase (GDP-mannose 4,6-dehydratase, GMD), recombinant wild type from pTGK:GMD (Escherichia coli)
Construct: made in house; host or cells: E. coli JM101 (plasmid pTGK:GMD), supernatant of French press lysate
Sequence (P0AC88 whole entry): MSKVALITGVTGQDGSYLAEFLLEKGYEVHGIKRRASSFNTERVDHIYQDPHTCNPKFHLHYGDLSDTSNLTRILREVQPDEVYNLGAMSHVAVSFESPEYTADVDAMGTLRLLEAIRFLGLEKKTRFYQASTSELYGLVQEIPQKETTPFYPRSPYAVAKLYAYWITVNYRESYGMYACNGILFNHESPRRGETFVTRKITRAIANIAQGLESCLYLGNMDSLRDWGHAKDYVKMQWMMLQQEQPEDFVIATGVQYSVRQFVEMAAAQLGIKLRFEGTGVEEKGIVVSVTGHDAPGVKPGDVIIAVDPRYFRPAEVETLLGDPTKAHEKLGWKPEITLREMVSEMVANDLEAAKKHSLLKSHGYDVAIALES
Assay: Inhibition of GDP-mannose dehydratase (GMD) by GDP-fucose, reverse phase HPLC assay (FIG. 5)
Type: biochemical
Settings: restated for the 0.2 kG scale production; quantity not given; read-out: inhibitor concentration ("40 μM inhibitor", see FIG. 5)
Method: C. Assay of GDP-Mannose Dehydratase To assay GDP-mannose dehydratase activity, a reverse phase HPLC assay was developed. […] GDP-mannose dehydratase activity was determined by reacting GDP-mannose dehydratase extract with 480 nmole of GDP-mannose in 50 mM Tris pH 7.5, 0.15 mM NADP^+ (NADP^+ is absolutely required for GDP-mannose dehydratase activity) in a 100 μl reaction volume. […] To control for any carryover loss upon HPLC injection, 10 nmole of CTP was added to the sample to be analyzed. […]
pIC50: −log10 of the molar value.
OBSERVABLE: pIC50

COMPOUND	VALUE
C[C@@H]1O[C@H](OP(=O)(O)OP(=O)(O)OC[C@H]2O[C@@H](n3cnc4c(=O)[nH]c(N)nc43)[C@H](O)[C@@H]2O)[C@@H](O)[C@H](O)[C@@H]1O [GDP-fucose]	4.40
